Give %Inh for every item shown.
- Tested on: PIK3CD
- measurement-conditions: concentration: 1 μM,replicates: in singlicate; n = 1;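 further: KINOMEscan kinase panel screen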
Give bare numbers, in %.

Before answering, review these 5 worked examples.
{"columns": ["molecule", "study-target", "experimental-readout", "readout-value"],
 "data": [
  ["Cn1ccc2ncnc(Oc3ccc(NC(=O)Nc4cccc(C(F)(F)F)c4)c(Cl)c3)c21", "PIK3CD", "%Inh", 0],
  ["c1ccc(Oc2ccc(Nc3ccnc4ccc(-c5ccccn5)cc34)cc2)cc1", "PIK3CD", "%Inh", 0],
  ["C[C@@H](Oc1cc(-n2cnc3cc(-c4ccncc4)ccc32)sc1C(N)=O)c1ccccc1Cl", "PIK3CD", "%Inh", 0],
  ["Cn1ccc2ncnc(Oc3ccc(NC(=O)Nc4ccnc(C(F)(F)F)c4)c(Cl)c3)c21", "PIK3CD", "%Inh", 0],
  ["Cc1ccc(Nc2ccnc(Nc3ccc4c(c3)CS(=O)(=O)C4)n2)cc1O.Cl", "PIK3CD", "%Inh", 0]
]}

Parameter requested: %Inh. Apply to each item below.
1. CCn1c(-c2nonc2N)nc2cncc(CNC3CCNCC3)c21.Cl
2. Cc1n[nH]c2cc(Nc3ccnc(Nc4cccc(CN5CCOCC5)c4)n3)ccc12
3. CS(=O)(=O)Nc1ccc(-c2ccnc3[nH]ccc23)cc1
4. CC(=O)Nc1nc2cnc(Nc3cc(NC(=O)c4cccc(CC(C)(C)C#N)c4)ccc3C)nc2s1
5. NC(=O)Nc1sc(-c2ccc(F)cc2)cc1C(N)=O

A.
1. 2
2. 9
3. 8
4. 54
5. 30

Parameter requested: %Inh. Apply to each item below.
1. CN1CCN(CCNc2nc3cc(Oc4ccc(NC(=O)Nc5cc(C(F)(F)F)ccc5F)cc4)ccc3[nH]2)CC1.Cl.Cl
2. CC(C)S(=O)(=O)N1CCN(Cc2ccc3c(c2)nc(NC(=O)c2ccsc2)n3C[C@H](O)c2ccccc2)CC1
3. COc1cc2c(Nc3ccc(NC(=O)c4ccccc4)cc3)ncnc2cc1OCCCN1CCOCC1
4. CC(=O)c1c(-c2ccncc2)[nH]c(-c2ccncc2)c1C

A.
1: 0; 2: 21; 3: 0; 4: 38

###

- System: CSNK1G3
- measurement-conditions: concentration: 1 μM,replicates: in singlicate; n = 1
experimental-readout: %Inh (%)
Give bare numbers, in %.

{"columns": ["molecule", "readout-value"],
 "data": [
  ["N#Cc1cccc(C(=O)NC2CCN(c3ccnc(Nc4ccc(F)cc4)n3)C2)c1 (stereo not drawn)", 6],
  ["COc1cc(Nc2nccc(N3CCC(NC(=O)c4cccc(C#N)c4)C3)n2)cc(OC)c1OC (stereo not drawn)", 7],
  ["Cn1ccc2ncnc(Oc3ccc(NC(=O)Nc4cccc(C(F)(F)F)c4)c(Cl)c3)c21", 0],
  ["Cn1ccc2ncnc(Oc3ccc(NC(=O)Nc4ccnc(C(F)(F)F)c4)c(Cl)c3)c21", 0],
  ["CCCC(=O)Nc1n[nH]c2ncccc12", 7],
  ["CN1CCN(CCNc2nc3cc(Oc4ccc(NC(=O)Nc5cc(C(F)(F)F)ccc5F)cc4)ccc3[nH]2)CC1.Cl.Cl", 0]
]}

Parameter requested: %Inh. Apply to each item below.
1. NC(=O)Nc1sc(-c2ccc(F)cc2)cc1C(N)=O
2. CC(=O)Nc1nc2cnc(Nc3cc(NC(=O)c4cccc(CC(C)(C)C#N)c4)ccc3C)nc2s1
3. O=C(Nc1n[nH]c2cc(-c3ccco3)ccc12)C1CC1

A.
[0, 0, 15]

Values were extracted from paper PMC5540273.
